MEASUREMENT_PROTOCOL: soluble on expression in E. coli; label from the status in PepcDB or PDB records
TEST_READOUT: soluble on expression in E. coli

# INPUT_SEQUENCE, TEST_READOUT, RESULT
data = [
    ("MPKWISIDEAAHKYGVKEEDICLWAEMEAITAYFTETTLIIDEKSLQKFMYLRKNLPTTGYIRTLEQLCINQSEVCKLYMEVIELQEKDLQYKKRRISVLERQYAMATKQNKLREKIITITSDMLSKAESGWWEKLWMKISNRQKL", "soluble on expression in E. coli", "not soluble"),
    ("ASELNIYSARHYNADFEIIKKFEEKTGIKVNHTQAKASELIKRLSLEGSNSPADIFITADISNLTEAKNLGLLSPVSSKYLEEFIPAHLRDKDKEWFAITKRARIIAYNKNTNIDISKMKNYEDLAKAEFKGEIVMRSATAPYSKTLLASIIANDGNKEAKAWAKGVLENLATNPKGGDRDQARQVFAGEAKFAVMNTYYIGLLKNSKNPKDVEVGNSLGIIFPNQDNRGTHINISGIAMTKSSKNQDAAKKFMEFMLSPEIQKILTDSNYEFPIRNDVELSQTVKDFGTFKEDQIPVSKIAENIKEAVKIYDEVGFRIEGR", "soluble on expression in E. coli", "soluble"),
    ("MVTKEQVVEALEGIVDPFLHKTLKETSAIKEVTVKPEKEHVSVKIAIVKTGTAEQMQLQSGIVKLVKELGAATVGLRFAEFTEEELAQFAPEQEEEQSESLLSPNSKTTFLAVASGKGGVGKSTVSVNLAVALARLGKKVGIIDADIYGFSVPDMMGIEKRPIVRGDKIIPVERLGVKVISMGFFVEDNAPVIWRGPMLGKMLNHFFTEVEWGDLDYLVLDLPPGTGDVALDVHSMLPSCKEIIVTTPHPTAAFVAARAGAMALRTEHSILGVVENMAYFESKVTGEKEYVFGKGGGDKLATELQTNVLGRIPLQQPDWNKEDFAPSVYEDTHTTGIIYSKIAETVIDKTAVTQKLEHHHHHH", "soluble on expression in E. coli", "soluble"),
    ("MLKISNSVTLQEWEIQLTPIRAQGNGGQNVNKVATAIHLRFDIHHSSLPEFYKERLLALSDSRITKDGVVIIKAQQFRTQEKNKEDALNRLQELIKAAALQDKKRIKTKPTRASQRRRLDSKNKQGAKKQQRKKVLYLEHHHHHH", "soluble on expression in E. coli", "not soluble"),
    ("GPGSMDSMCTFIIRPPRSTYEIADLGPGVFRIGDDCTERFMRHDFELENMRGLRFQCSWFKPYPARRVPCVVYCHANCGGRYDGLEALFLLQEGFSLFCFDFCGSGMSEGEYISLGFYERQDLVAIVEFLSLKSDEVDGVALWGRSMGAVATIMYASKGSIRGFVVLFAIRPSHPCGCSSTIWWSDMVGERPGFCQRFWCTGLWSASVSAS", "soluble on expression in E. coli", "not soluble"),
    ("MNGKVIIVTGGSSGMGKYMAKRFVSDGANVVITGRRAEALEEAKREIAAPDGGKVLTIPMDVRNPEQVAHMVERTDAEFGRIDALINNAAGNFICPAEKLSINGWNSVINIVLNGTFYCSREVGNYWIQRGLKGNIINIVATYAWHAGAGVIHSASAKAGVLAMTRTLAVEWGKKYGFRVNAIAPGPIERTGGAERLWESEEAERMTLESVPLGRLGTPEEIAAVASFLLSDEAAYINGACITVDGGQWLNRRPF", "soluble on expression in E. coli", "soluble"),
    ("MAHHHHHHMSEARQIQSMIDFIEREAQEKAEELEAAAQEEYDVEKMRLVEAEKAKIRAMAEKKLKQVDVDRRVARANYSKVQRMRVMEERARTMEKLHEQTRQKIVAMVNNPPQYKPMLVRLIHQSLMSIRTDAVVQCRKEDEAEVVRSIPELERWYKEKTGATISIQTSKTYLDTAEAWGGVVVKSTDGRVVCNNTLSYRTKTCFDEQLPTVRFHLFNPDAPL", "soluble on expression in E. coli", "soluble"),
]

###

MEASUREMENT_PROTOCOL: soluble on expression in E. coli; label from the status in PepcDB or PDB records

# INPUT_SEQUENCE, soluble on expression in E. coli
records = [
    ("MPKRIVYNISSDFQLKSLLGEGAYGVVCSATHKPTGEIVAIKKIEPFDKPLFALRTLREIKILKHFKHENIITIFNIQRPDSFENFNEVYIIQELMQTDLHRVISTQMLSDDHIQYFIYQTLRAVKVLHGSNVIHRDLKPSNLLINSNCDLKVCDFGLARIIDESAADNSEPTGQQSGMVEFVATRWYRAPEVMLTSAKYSRAMDVWSCGCILAELFLRRPIFPGRDYRHQLLLIFGIIGTPHSDNDLRCIESPRAREYIKSLPMYPAAPLEKMFPRVNPKGIDLLQRMLVFDPAKRITAKEALEHPYLQTYHDPNDEPEGEPIPPSFFEFDHYKEALTTKDLKKLIWNEIFS", "soluble"),
    ("MAHHHHHHMRQTGSFQPFFLRGKVVHGKGRGGSQLGFPTANIGLDKDVMECLQPYKNLVVYGWGTVSQVPGKERESFGPYPFAASIGFNMQFDEKTLTVEPYFLHEFGWDFYGAVVKIIVLGEIRSMGSFHSLQALVDTIKSDVQFTRDMLQKPQLQEFSRHSLFESPSSTIPYFEDLPDE", "soluble"),
]

###

MEASUREMENT_PROTOCOL: soluble on expression in E. coli; label from the status in PepcDB or PDB records

# INPUT_SEQUENCE, soluble on expression in E. coli
data = [
    ("MSLKITRITVYQIALPLEHPYWLSGGRLKFEVLDATLVKIETGTGLTGWGEGTPWGHTYVPAHGPGIRAGIETMAPFIIGLDPRRGLEIERAMDLALPGHLYAKSPIDMACWDIAGQAAGLSIADLMGGGSRTPRPIASSVGAKTVEETRAVIERYRQRGYVAHSVKIGGDIERDIARVRDVESLRRDGEIVLYDVNRGWTRQQALRVMSATEDLNVMFEQPCESLDDIAAIAGKYAAPVSVDESLVTLQDAARIARDGLAEVFGIKLNRVGGLTKAARMRDIALAHGIDMFVMATGGSVLADAEALHLAATIPDANCHAVWACQDMITLDIAGGRGPRNIDGHLHLTEAPGLGVHPDEDVLGDPVGVYGEGHHHHHH", "not soluble"),
    ("MKTRISSSRVRFSRYYLRIRESLISIPSRKNQFRFIRKNRFALQASFRSFTENSLTLSFMLLRRSPMKQSRTFLIF", "not soluble"),
]

###

MEASUREMENT_PROTOCOL: soluble on expression in E. coli; label from the status in PepcDB or PDB records

# INPUT_SEQUENCE, soluble on expression in E. coli
data = [
    ("MSLKRKVLFTAVMVLAGLQLLSGCGKTEASANDTVVLRYAYASNSQPVIDSMKKFGELVEEKTDGKVQIEYFPDGQLGGETELIELTQTGAIDFAKVSGSALESFSKDYSVFAIPYIFDNEKHFFKVMDNQALMQPVYDSTKKLGFVGLTYYDSGQRSFYMSKGPVTSPDDLKGKKIRVMQSETAIKMVELLGGSPVPMGSSEVYTSLQSNLINGAENNEFVLYTAGHGGVAKYYSYDEHTRVPDIVIMNEGTKERLTAKQEQAIEEAAKESTAFEKTVFKEAVEEEKKKAQAEYGVVFNQVDSEPFQKLVQPLHESFKNSSEHGELYQAIRQLADEGGSHHHHHH", "soluble"),
    ("MWDERFSQSEYVYGTEPNDFLVSVANQIPQGKILCLAEGEGRNACFLASLGYEVTAVDQSSVGLAKAKQLAQEKGVKITTVQSNLADFDIVADAWEGIVSIFCHLPSSLRQQLYPKVYQGLKPGGVFILEGFAPEQLQYNTGGPKDLDLLPKLETLQSELPSLNWLIANNLERNLDEGAYHQGKAALIQLLGQKLEHHHHHH", "soluble"),
]

###

MEASUREMENT_PROTOCOL: soluble on expression in E. coli; label from the status in PepcDB or PDB records

# INPUT_SEQUENCE, soluble on expression in E. coli
records = [
    ("KEIIVNENDILLLWDGSNAGEIFLGKKGILSSTMVKLEQKNKIMDDLYLFYSLKLKESFLKSQTKGTGIPHVDKKIFENIKIPLPPLEEQKQIAKILSDFDN", "not soluble"),
    ("MAQGNQQIDNQVLHHLRQKFPEVPEDVVCECVLQNKSDLAACCEYLTKVSPRFLYSEGSQSLTDLRNHMTQLNLGVSQNTHGAVQRDAVGMNGSRTLAPSVSDGPLNVPSALSEFYQPETPSVPTHTPASLSMESTRKPQPPQHLGLYQVGGKGHAPPQAPRFNPITVTLAPNTGRNTPTSLHIHGGPQSGLNSPNSIYIRPYVTQPGSTRQVQCRAQYSPTSQPAQQIYQITHPAAPQSSWSQHQTSHVYMPISSPTNTHTHTRFTCVCARVRMPVCLIHGNGR", "not soluble"),
]
